Values compiled from patent US20250215104A1.

Target: T1, cynomolgus soluble urokinase plasminogen activator receptor (suPAR) (cynomolgus, UniProt Q9GK78 23-303, limits assumed)
T1 construct: Target antigen of the off-rate screen; also called cynomolgus uPAR; cynomolgus suPAR
T1 sequence (Q9GK78 23-303 limits assumed): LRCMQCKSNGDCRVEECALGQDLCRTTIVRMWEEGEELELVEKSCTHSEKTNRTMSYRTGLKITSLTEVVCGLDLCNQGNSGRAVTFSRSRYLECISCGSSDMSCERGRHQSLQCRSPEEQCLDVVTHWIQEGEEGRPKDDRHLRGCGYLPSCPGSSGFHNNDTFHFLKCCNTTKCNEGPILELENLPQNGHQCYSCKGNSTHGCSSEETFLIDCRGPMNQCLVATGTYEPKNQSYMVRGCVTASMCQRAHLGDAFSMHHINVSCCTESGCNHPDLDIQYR
Protocol notes: off-rate (kdis) screen of scFv clones, biosensor (Octet)
koff values by entry

Binder	koff (s⁻¹)
suPAR_DB01_A03 (scFv, V domains shown, screened as scFv) VH: QVQLVQSGAEVKKPGASVKVSCKASGYTFTSNYIHWVRQAPGQGLEWMGWIDHENGSTSYDQKFQGRVTMTRDTSTSTVYMELSSLRSEDTAVYYCARGYDVDWFVYWGQGTLVTVSS VL: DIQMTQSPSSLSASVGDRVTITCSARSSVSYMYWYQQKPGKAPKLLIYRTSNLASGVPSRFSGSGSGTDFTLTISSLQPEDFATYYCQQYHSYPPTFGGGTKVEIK	0.000231
suPAR_DB01_C11 (scFv, V domains shown, screened as scFv) VH: QVQLVQSGAEVKKPGASVKVSCKASGGTFTSYYMHWVRQAPGQGLEWMGWIDPENGSTIYDQKFQGRVTMTRDTSTSTVYMELSSLRSEDTAVYYCARGYDVDWFVYWGQGTLVTVSS VL: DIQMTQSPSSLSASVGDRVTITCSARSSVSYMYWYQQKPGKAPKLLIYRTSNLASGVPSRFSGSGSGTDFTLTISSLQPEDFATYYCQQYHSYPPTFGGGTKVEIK	8.96e-05
suPAR_DB01_A06 (scFv, V domains shown, screened as scFv) VH: QVQLVQSGAEVKKPGASVKVSCKASGYTFTSYYMHWVRQAPGQGLEWMGWIDHENGNTIYDQKFQGRVTMTRDTSTSTVYMELSSLRSEDTAVYYCARGYDVDWFVYWGQGTLVTVSS VL: DIQMTQSPSSLSASVGDRVTITCRARQSVSYMYWYQQKPGKAPKLLIYRTSNLASGVPSRFSGSGSGTDFTLTISSLQPEDFATYYCQQYHSYPPTFGGGTKVEIK	4.27e-07
